tested on: NCI-H460; test: NCI tumour cell line growth inhibition, 48 h
Activity calls are given as the source filed them. No stated cut-off is given here; in the data, active = GI50 up to about 1.1 µM and inactive = higher.
Outcome codes: T (active), F (inactive)

In [3]: df
Out[3]:
                                   compound  group_label
0  C[Si](C)(C)OC1c2[nH]c3ccccc3c2CN2C(=O)CCC12 (centres undefined)            F
1   O=S(=O)(c1cccc(N=C=S)c1)c1cccc(N=C=S)c1            F
2      Cc1ccc2cc3cccc(C(=O)NCCN(C)C)c3nc2c1            T
3  CC1CC(C)C(=O)C(C(=O)CC2CC(=O)NC2=O)C1 (centres undefined)            F
4  COC(=O)C(=O)C(C(=O)C=C(C)C)C(=O)C(=O)Nc1nc2ccc([N+](=O)[O-])cc2s1 (centres undefined)            F
5  COC(=O)C1(CCC(C)=O)CCCCCC1=O (centres undefined)            F
6  COc1ccc(/C=C/C(=O)c2sc(-n3nc(-c4ccccc4)cc3-c3ccccc3)nc2C)cc1            F
7      COc1cccc2c1CCc1sc(CN3CCN(C)CC3)nc1-2            F
8    Cc1ccc(S(=O)(=O)N(CC(=O)O)c2ccccc2)cc1            F

====

tested on: A549; test: NCI tumour cell line growth inhibition, 48 h
The source made the active and inactive calls. No stated cut-off is given here; in the data, active = GI50 up to about 1.1 µM and inactive = higher.
Labels: 1 (yes) = active, 0 (no) = inactive

In [3]: df
Out[3]:
                                    compound  group_label
 0  CC(C)(C)OC(=O)N(CCCCN(CCCNC(=O)C(F)(F)F)C(=O)OC(C)(C)C)CCCNC(=O)C(F)(F)F       0 (no)
 1  O=C(c1ccc(Cl)cc1)c1ccc(OCCCOc2ccc(C(=O)c3ccc(Cl)cc3)cc2)cc1       0 (no)
 2  CCn1c2ccccc2c2cc(NC(=O)c3c(C)nc(O)nc3NCCNCCO)ccc21       0 (no)
 3  CC(C)c1c(P(=O)(c2ccccc2)c2ccccc2)n(C)c2ccccc12       0 (no)
 4  CC(=O)OC1(C(C)=O)CC2(c3ccccc3)OC1(c1ccccc1)c1ccccc12 (stereo not given)       0 (no)
 5  CN(C)CCNC(=O)c1cccc2ccc(-c3ccc(O)cc3)nc12      1 (yes)
 6  O=C(Nc1ccccc1)c1cc2ccccc2c(/N=N\c2cccc([N+](=O)[O-])c2)c1O       0 (no)
 7  C[C@@H]1CC[C@@H](C)[C@](C)(CCc2ccoc2)C/C=C\C=C/1C(=O)O       0 (no)
 8  C=C1C(O)C23CCC4C(C(=O)O)(C(=O)O)CC(OC5OC(CO)C(O)C(OC(=O)CCc6ccccc6)C5NC(=O)CC(C)C)CC4(C)C2CCC1(O)C3 (stereo not given)       0 (no)
 9  CC1(O)CC23CC1CCC2(C)C12CCCC(C)(C(=O)O1)C2CC3O (stereo not given)       0 (no)
10  Cc1ccc(/N=C2N=C(Cl)/C(=C\c3ccccc3)N\2)cc1       0 (no)
11  COc1cc(CCCOC2OC(COC3OCC(O)C(O)C3O)C(O)C(O)C2O)cc2cc(-c3ccc4c(c3)OCO4)oc12 (stereo not given)       0 (no)
12  COc1cc(/C=C/C(=O)c2ccc(NS(=O)(=O)c3cc([N+](=O)[O-])ccc3C)cc2)cc(OC)c1OC       0 (no)
13  CC1(Cl)CC2OC3(Br)C=CC(C)(O)C2(CC1Br)C3(C)C (stereo not given)       0 (no)
14     Cc1cc(C)cc(Sc2c([N+](=O)[O-])ncn2C)c1       0 (no)
15        C/C(CCn1[nH]c(=O)ccc1=O)=N\N=C(N)N       0 (no)
16  C[Si](C)(C)OC1c2[nH]c3ccccc3c2CN2C(=O)CCC12 (stereo not given)       0 (no)
17               Cc1cc2c(s1)C(=O)c1sccc1C2=O      1 (yes)
18            Oc1ccc(NCn2c(=S)sc3ccccc32)cc1       0 (no)
19  CC1(CO)OC(n2cc(C(=O)NC(=O)OCc3ccccc3)c(=O)[nH]c2=O)CC1O (stereo not given)       0 (no)
